Target or test system: T1, human NMUR1 (human, UniProt Q9HB89 1-426)
T1 sequence (looked up): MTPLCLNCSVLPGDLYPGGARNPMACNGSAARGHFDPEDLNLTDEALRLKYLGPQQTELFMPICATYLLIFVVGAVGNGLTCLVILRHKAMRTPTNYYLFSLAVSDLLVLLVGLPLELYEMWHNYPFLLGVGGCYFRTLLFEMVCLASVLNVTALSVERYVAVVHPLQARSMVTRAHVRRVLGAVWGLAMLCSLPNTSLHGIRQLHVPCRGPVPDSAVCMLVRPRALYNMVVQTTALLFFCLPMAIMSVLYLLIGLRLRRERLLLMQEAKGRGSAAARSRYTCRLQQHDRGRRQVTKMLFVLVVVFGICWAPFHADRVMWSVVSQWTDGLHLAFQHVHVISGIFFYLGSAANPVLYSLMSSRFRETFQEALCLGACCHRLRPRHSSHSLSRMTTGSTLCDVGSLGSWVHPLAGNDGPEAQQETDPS
Assay protocol: cell-based or functional assay
Non-standard residues stand in square brackets, D forms with d. No end group written: not given here.
Form field: IC50 (nM), functional (one value per entry).
Give a bare numeral; the unit nM is implied.

Solved cases below.
Binder	IC50 (nM), functional
YF[dL]WRPRN-NH2 (N-terminus assumed; SMILES CC(C)C[C@@H](NC(=O)[C@H](Cc1ccccc1)NC(=O)[C@@H](N)Cc1ccc(O)cc1)C(=O)N[C@@H](Cc1c[nH]c2ccccc12)C(=O)N[C@@H](CCCNC(=N)N)C(=O)N1CCC[C@H]1C(=O)N[C@@H](CCCNC(=N)N)C(=O)N[C@@H](CC(N)=O)C(N)=O) [neuromedin U receptor agonist B]	9
YF[dA]WRPRN-NH2 (N-terminus assumed; SMILES C[C@@H](NC(=O)[C@H](Cc1ccccc1)NC(=O)[C@@H](N)Cc1ccc(O)cc1)C(=O)N[C@@H](Cc1c[nH]c2ccccc12)C(=O)N[C@@H](CCCNC(=N)N)C(=O)N1CCC[C@H]1C(=O)N[C@@H](CCCNC(=N)N)C(=O)N[C@@H](CC(N)=O)C(N)=O) [neuromedin U receptor agonist D]	1.5
YFGWRPRN-NH2 [neuromedin U receptor agonist C]	1.1
FRVDEEFQSPFASQSRGYFWRPRN-NH2 [neuromedin U receptor agonist G]	8.4

Note: attention shifts to another entry.
Recorded IC50 (nM), functional of Ac-F[dL]WRPRN-NH2 (SMILES CC(=O)N[C@@H](Cc1ccccc1)C(=O)N[C@H](CC(C)C)C(=O)N[C@@H](Cc1c[nH]c2ccccc12)C(=O)N[C@@H](CCCNC(=N)N)C(=O)N1CCC[C@H]1C(=O)N[C@@H](CCCNC(=N)N)C(=O)N[C@@H](CC(N)=O)C(N)=O) [neuromedin U receptor agonist E] , please.
1.9
